Test system: K-562 leukemia
protocol.summary: NCI tumour cell line growth inhibition, 48 h
observation.type: GI50

Previously resolved entries follow.
[
  {
    "given.smiles": "C=C1C(=O)O[C@H]2[C@H]1CC/C(Cn1cc(Cc3c[nH]c4ccccc34)nn1)=C\\CC[C@@]1(C)O[C@@H]21",
    "val": "1810 nM"
  },
  {
    "given.smiles": "N#Cc1ccc(CSc2ncnc3nc[nH]c23)cc1",
    "val": "63700 nM"
  },
  {
    "given.smiles": "COc1cc2c3c(n(CCCCNC(=O)OC(C)(C)C)c(=O)c2cc1OC)-c1cc2c(cc1C3=O)OCO2",
    "val": "> 100000 nM"
  }
]

Query the reported GI50 for K-562 leukemia; item: `COC12C=C/C(=C(/C(=O)OCCSc3ccnn3C)C(=O)CCCCCCCCC3(OC)C=C/C(=C(/C(=O)OCCSc4ccnn4C)C(=O)CCCCCCCC1)O3)O2`
1050 nM

====

Test system: NCI-H522 lung
protocol.summary: NCI tumour cell line growth inhibition, 48 h
Entries and their TGI

Name the reported TGI value associated with the molecule `COC(=O)c1ccccc1NC(=S)NN(C)C`
> 100 µM

====

System: MOLT-4 leukemia
protocol.summary: NCI tumour cell line growth inhibition, 48 h
Each entry gets no if its TGI stays under 40 µM, and yes if its TGI is 40 µM or above.

[
  {
    "compound": "COc1cc(OC)c(/C=C/C(=O)c2ccc(Nc3ncnc4ccccc34)cc2)c(OC)c1",
    "class.label": "yes"
  },
  {
    "compound": "Clc1ccc2nc3n[nH]c(Cl)c3nc2c1",
    "class.label": "yes"
  },
  {
    "compound": "O=C1OC(c2ccccc2)(c2ccccc2)c2ccc3ccc(F)cc3c21",
    "class.label": "yes"
  },
  {
    "compound": "C/C(=N/NC(=S)N(C)C)c1ccccc1O",
    "class.label": "yes"
  },
  {
    "compound": "C=C(C)[C@@H]1C/C=C(/CO)CC[C@H]2O[C@]2(C)CC/C=C(\\C)CC1",
    "class.label": "no"
  }
]

Now consider the entry below.
Exam item: decide whether the reported TGI for COC1=CC(=O)C2C(C1=O)[C@@H]1c3ccccc3OC(C)(C)[C@H]21 (stereo partly specified) is at least 40 µM.
yes

====

Entries and their TGI
Test system: HOP-92 NSCLC
protocol.summary: NCI tumour cell line growth inhibition, 48 h
Only the number, expressed in µM, is required.

Previously resolved entries follow.
[
  {
    "molecule": "COc1cc2c(c(O)c1C)C(=O)CC(c1ccccc1)O2 (configuration not stated)",
    "u": "µM",
    "val": 40.8
  },
  {
    "molecule": "CCn1c(-c2c(Cl)cc(O)cc2Cl)cc2c(Cl)cc(O)cc21",
    "u": "µM",
    "val": 59.4
  },
  {
    "molecule": "C=C(C)[C@@H]1CC[C@]2(COCCCNCCCN)CC[C@]3(C)[C@H](CC[C@@H]4[C@@]5(C)CC[C@H](OCCCN)C(C)(C)[C@@H]5CC[C@]43C)[C@@H]12",
    "u": "µM",
    "val": 9.76
  },
  {
    "molecule": "N/C(=N\\S(=O)(=O)c1ccc(-c2ccccn2)s1)Nc1ccc(Cl)cc1",
    "u": "µM",
    "val": 28.9
  },
  {
    "molecule": "COC12C=C/C(=C(/C(=O)OCCSc3ccnn3C)C(=O)CCCCCCCCC3(OC)C=C/C(=C(/C(=O)OCCSc4ccnn4C)C(=O)CCCCCCCC1)O3)O2",
    "u": "µM",
    "val": 2.55
  },
  {
    "molecule": "Cc1ccc(-c2c(C#N)[n+](=O)c3cc(F)c(F)cc3n2[O-])cc1",
    "u": "µM",
    "val": 3.84
  },
  {
    "molecule": "CCCCC[C@H]1CC=C2C(=O)C=C[C@@H]2CC=CCCCC(=O)O[C@@H](CCCCC)CC=C2C(=O)C=C[C@@H]2CC=CCCCC(=O)O[C@@H](CCCCC)CC=C2C(=O)C=C[C@@H]2CC=CCCCC(=O)O1",
    "u": "µM",
    "val": 1.82
  },
  {
    "molecule": "CC(CN1CC(=O)NC(=O)C1)N1CC(=O)NC(=O)C1 (configuration not stated)",
    "u": "µM",
    "val": 732
  }
]

Now for a further molecule.
Name the reported TGI value associated with the molecule `COc1cc(NS(C)(=O)=O)ccc1NCc1cnc2ccc3[nH]cccc3c12`
93.9

====

System: MOLT-4 leukemia
protocol.summary: NCI tumour cell line growth inhibition, 48 h
observation.type: TGI

Previously resolved entries follow.
[
  {
    "compound": "COC1(OC)C2(Cl)C(Cl)=C(Cl)C1(Cl)C1c3ccc(C(C)=O)c4cccc(c34)C12 (stereo unspecified)",
    "observation.type": "TGI",
    "val": "> 77.6 µM"
  },
  {
    "compound": "CC(N)Cc1ccc(Cl)cc1 (stereo unspecified)",
    "observation.type": "TGI",
    "val": "> 100 µM"
  },
  {
    "compound": "Oc1cc(O)c2c(c1)O[C@H](c1cc(O)c(O)c(O)c1)[C@@H](O)C2",
    "observation.type": "TGI",
    "val": "> 10 µM"
  }
]

Name the reported TGI value associated with the compound O=P(O)(O)OCC1OC(n2cnc3c(NCc4ccco4)ncnc32)C(O)C1O (stereo unspecified)
1.9 µM

Name the reported TGI value associated with the compound CC(CN1CC(=O)NC(=O)C1)N1CC(=O)NC(=O)C1 (stereo unspecified)
> 750 µM

Name the reported TGI value associated with the compound `O=C1NC(=O)C(=Cc2c3ccccc3cc3ccccc23)C(=O)N1`
> 100 µM

Name the reported TGI value associated with the compound `Nc1nc2c(c(-c3ccccc3Cl)n1)COC/C2=C\c1ccccc1Cl`
34.6 µM

Name the reported TGI value associated with the compound `O=C(N/C(=C\c1c(O)ccc2ccccc12)c1nc2ccccc2[nH]1)c1ccccc1`
> 100 µM

Name the reported TGI value associated with the compound CC(CN(C)C)S(=O)(=O)c1ccc(-c2cnc(N)c(C(=O)Nc3ccccc3)n2)cc1 (stereo unspecified)
14.2 µM

Name the reported TGI value associated with the compound O=C1C(C(c2ccc([N+](=O)[O-])cc2)N2CCOCC2)=C(O)C(c2ccccc2)N1c1ccccc1 (stereo unspecified)
> 10 µM

Name the reported TGI value associated with the compound `CN(C)C[C@H]1CCn2c(c(C3=C(c4cn(C)c5ccccc45)C(=O)NC3=O)c3ccccc32)C1`
14 µM

Name the reported TGI value associated with the compound `Cn1cnc([N+](=O)[O-])c1Sc1nnnn1C`
33.7 µM

Name the reported TGI value associated with the compound `NC(=O)COc1c(Br)cc(Br)cc1Br`
> 100 µM

Name the reported TGI value associated with the compound `C=C1C(=O)O[C@H]2[C@H]1CC/C(COC(=O)c1cn(C)c3ccccc13)=C\CC[C@@]1(C)O[C@@H]21`
3.54 µM

Name the reported TGI value associated with the compound `N=c1n(CC(=O)NC23CC4CC(CC(C4)C2)C3)c2ccccc2n1CC(=O)NC12CC3CC(CC(C3)C1)C2`
6 µM

Name the reported TGI value associated with the compound CCOC(=O)C1(C#N)C2(C#N)C(N)=NC(ON=C(C)C)(ON=C(C)C)C12C#N (stereo unspecified)
> 100 µM

Name the reported TGI value associated with the compound COc1cc2c(c(O)c1C)C(=O)CC(c1ccccc1)O2 (stereo unspecified)
> 100 µM

Name the reported TGI value associated with the compound `Nc1ccc2nc(Nc3ccc(Cl)c(Cl)c3)cnc2c1`
97.7 µM

Name the reported TGI value associated with the compound C=C1C2C[C@@H]3OC4CC5O[C@]6(CC5OC4C(C)C3OC(=O)CC3CC[C@@H]4OC5C7OC8C[C@](CCC9CC(=C)[C@H](CCC(C[C@H]1C)O2)O9)(OC7C4O3)O[C@@H]85)C[C@@H]1O[C@@]2(CC(C)[C@@H]3OC(CC(=O)CCO)C(O)C[C@@H]3O2)CC(C)[C@@H]1O6 (stereo partly specified)
2.19 µM

====

Entries and their TGI
System: PC-3 prostate
protocol.summary: NCI tumour cell line growth inhibition, 48 h
Only the number, expressed in µM, is required.

[
  {
    "compound": "CCN(CC)CCCOc1ccc2ncnc(Nc3ccc(Oc4cccc(C(F)(F)F)c4)c(Cl)c3)c2c1",
    "observation.type": "TGI",
    "val": 3.58
  }
]

Name the reported TGI value associated with the compound `Cn1cc(-c2nc(-c3c[nH]c4ccncc34)cs2)c2ccccc21`
2.96

Name the reported TGI value associated with the compound COC1=CC(=O)c2c(cc(COP(N)(=O)N(CCCl)CCCl)n2C)C1=O (configuration not stated)
10.1
